# System: rat small intestine (ileum) segments
# protocol.text: Rat small intestine (ileum) strip relaxation (nifedipine-sensitive force)
# Set-up: species or system rat (Sprague Dawley)
# measurement.context: integral of nifedipine-sensitive force pre- and 30 min post-compound; compound concentration not given
value.type: % inhibition of force (RSI strips) (%)
State the answer as a number, implicitly in %.

# compound COc1ccc(Cl)cc1-c1c(SCC(O)CN2CCN(CCO)CC2)c(=O)[nH]c2ccc(C(F)(F)F)cc12 (stereo not shown) [Example 79] ; its % inhibition of force (RSI strips) = 10

The compound listed as O=c1[nH]c2ccc(C(F)(F)F)cc2c(-c2cc(Cl)ccc2O)c1SCC(O)CN1CCN(CCO)CC1 (stereo not shown) [Example 84] has a reported % inhibition of force (RSI strips) of 55

Sample O=c1[nH]c2ccc(C(F)(F)F)cc2c(-c2cc(Cl)ccc2O)c1SCC(O)CN1CCSCC1 (stereo not shown) [Example 85] ; % inhibition of force (RSI strips) observed: 40

% inhibition of force (RSI strips) measured on CCN(CC)CC(O)CSc1c(-c2cc(Cl)ccc2O)c2cc(C(F)(F)F)ccc2[nH]c1=O (stereo not shown) [Example 74] = 46
